# Method: soluble on expression in E. coli; label from the status in PepcDB or PDB records
Observed property: soluble on expression in E. coli

1. MGSDKIHHHHHHMKISVLGAGCIGGSIALKLKEKHHVTAFDRDEETMKALEENGIETVSKESDLYDTDLLVLALPMSVEERFLKETDFSGKILDVASVKTPFMEIARERGLNFTGGHPMAGNERKGKSGWDREMFDGKIFFLCSLDGKEDGMIENIVKDLGARPLWIDYRIHDEIVAAVSHVQYLISLSARYVGKPFEEYAGPGYLSNTRLSKQNMEMALDMIRYNKENILKYLENARNFLNVLYHLTEKEDFENLKKVIREVIS not soluble
2. MDGYQLTFSNNKRSDKSIVSEKLQRDCDPPITQKYFWSSGGHTFHFRAAAAEKNVTPFSTKMQGKYIKKKAM not soluble
